// reported IC50 per item
SUBJECT_OF_TEST: T1, recombinant human HGF (R&D Systems, Catalog No. 294-HGN-025) (human, UniProt P14210 32-728)
T1 construct: Mature HGF is a disulfide-linked heterodimer of alpha and beta chain cut from one precursor; also called rhHGF (R&D Systems); rhHGF
METHOD_NOTES: competition ELISA (DELFIA): antibody inhibits biotinylated c-Met binding to plate-coated HGF
QUANTITY_KIND: IC50 (nM)

BINDER	QUANTITY_KIND	ENDPOINT_RESULT
HE2B8-2 (LR2B8HC + IgG1 constant region G1m(3) allotype allele 1, plus LRMR2B8LC + Kappa constant region Km(3) allotype allele 1) (antibody, V domains shown, Human Engineered 2B8 variant, human IgG1 kappa, made in HEK293E cells) VH: QVQLVQPGAEVVKPGTSVKLSCKASGYTFTTYWMHWVNQAPGQGLEWIGEINPTNGHTNYNEKFKGKATLTVDKSTSTAYMELSSLRSEDTAVYYCARNYVGSIFDYWGQGTLLTVSS VL: DIVMTQSPDSLAMSLGERVTLNCKASENVVSYVSWYQQKPGQSPKLLIYGASNRESGVPDRFSGSGSATDFTLTISSVQAEDVADYHCGQSYNYPYTFGQGTKLEIKR	IC50	5.7
HE2B8-3 (LRMR2B8HC + IgG1 constant region G1m(3) allotype allele 1, plus LR2B8LC + Kappa constant region Km(3) allotype allele 1) (antibody, V domains shown, Human Engineered 2B8 variant, human IgG1 kappa, made in HEK293E cells) VH: QVQLVQPGAEVKKPGTSVKLSCKASGYTFTTYWMHWVRQAPGQGLEWIGEINPTNGHTNYNQKFQGRATLTVDKSTSTAYMELSSLRSEDTAVYYCARNYVGSIFDYWGQGTLLTVSS VL: DIVMTQSPDSMAMSVGERVTLNCKASENVVSYVSWYQQKPGQSPKLLIYGASNRNTGVPDRFSGSGSATDFTLTISSVQAEDVADYHCGQSYNYPYTFGQGTKLEIKR	IC50	5.9
HE2B8-1 (LR2B8HC + IgG1 constant region G1m(3) allotype allele 1, plus LR2B8LC + Kappa constant region Km(3) allotype allele 1) (antibody, V domains shown, Human Engineered 2B8 variant, human IgG1 kappa, made in HEK293E cells) VH: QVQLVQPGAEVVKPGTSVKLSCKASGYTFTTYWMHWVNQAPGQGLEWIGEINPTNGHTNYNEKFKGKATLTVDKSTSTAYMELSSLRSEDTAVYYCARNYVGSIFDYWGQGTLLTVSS VL: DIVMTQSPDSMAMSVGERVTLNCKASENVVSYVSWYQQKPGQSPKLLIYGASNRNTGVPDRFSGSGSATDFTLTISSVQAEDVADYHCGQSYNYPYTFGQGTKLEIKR	IC50	6
HE2B8-4 (LRMR2B8HC + IgG1 constant region G1m(3) allotype allele 1, plus LRMR2B8LC + Kappa constant region Km(3) allotype allele 1) (antibody, V domains shown, Human Engineered 2B8 variant, human IgG1 kappa, made in HEK293E cells) VH: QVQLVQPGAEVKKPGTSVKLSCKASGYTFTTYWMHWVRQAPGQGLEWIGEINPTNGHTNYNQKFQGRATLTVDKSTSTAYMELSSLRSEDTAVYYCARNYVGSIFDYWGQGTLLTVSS VL: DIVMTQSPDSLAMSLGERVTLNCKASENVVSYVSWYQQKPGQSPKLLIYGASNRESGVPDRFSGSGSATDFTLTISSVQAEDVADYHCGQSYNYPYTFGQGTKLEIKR	IC50	6.5
